Assay: Elimination half life in healthy human
Format: ADME, organism-based
Settings: in vivo, read-out: beta t1/2 (converted)
assay_metric: half-life
Please format your answer as a value with the unit trailing.

Using the record for `COC(=O)N1CCC(CN2CCC(CNC(=O)c3cccc4[nH]c(C(C)C)nc34)CC2)CC1` , state its measured half-life.
12 h

###

Assay: Cmax in beagle dog at 2 mg/kg, po
Type: ADME, organism-based, Canis lupus familiaris
Design: dose 2 mg/kg, route oral
Conditions: in vivo
assay_metric: Cmax (µg/mL)
Give the value in µg/mL but do not write µg/mL after it.

Using the record for `COC(=O)N1CCC(CN2CCC(CNC(=O)c3cccc4[nH]c(C(C)C)nc34)CC2)CC1` , state its measured Cmax.
0.464

###

Biological target: UniProt P46098
Sequence (P46098 whole entry): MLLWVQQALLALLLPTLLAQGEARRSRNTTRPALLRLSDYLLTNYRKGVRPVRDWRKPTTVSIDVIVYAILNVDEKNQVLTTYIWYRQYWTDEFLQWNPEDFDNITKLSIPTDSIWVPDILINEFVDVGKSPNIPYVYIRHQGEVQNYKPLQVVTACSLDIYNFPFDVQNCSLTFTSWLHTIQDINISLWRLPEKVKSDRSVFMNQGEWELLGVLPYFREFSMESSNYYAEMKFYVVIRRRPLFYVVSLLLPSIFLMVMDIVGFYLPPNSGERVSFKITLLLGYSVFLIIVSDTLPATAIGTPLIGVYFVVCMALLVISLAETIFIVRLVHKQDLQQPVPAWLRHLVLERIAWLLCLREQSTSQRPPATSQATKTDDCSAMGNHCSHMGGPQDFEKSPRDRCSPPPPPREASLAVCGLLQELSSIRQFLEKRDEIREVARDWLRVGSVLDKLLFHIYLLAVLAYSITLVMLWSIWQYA
Assay: Binding affinity to human recombinant 5HT3 receptor
assay_metric: pKi
// pKi is dimensionless: -log10 of concentration (M)

Example entries begin here.
> print(dat)
                                   compound  numeric.result
1  COC(=O)N1CCC(CN2CCC(CNC(=O)c3cccc4[nH]c(C(C)C)nc34)CC2)CC1            4.00
2  CC(C)c1nc2cccc(C(=O)NCC3CCN(CC(O)CN(C)S(C)(=O)=O)CC3)c2[nH]1 (stereo not given)            4.10
3  CC(C)c1nc2c(C(=O)NCC3CCN(CCN4CCN(S(C)(=O)=O)CC4)CC3)cccc2[nH]1            4.00
4  CS(=O)(=O)N1CCN(CC(O)CN2CCC(CNC(=O)c3cccc4[nH]c(-c5ccccc5)nc34)CC2)CC1 (stereo not given)            4.80
5  CC(C)c1nc2c(C(=O)NCC3CCN(CC4CCN(S(C)(=O)=O)CC4)CC3)cccc2[nH]1            4.00

Given CS(=O)(=O)N1CCN(CC(O)CN2CCC(NC(=O)c3cccc4[nH]cnc34)CC2)CC1 (stereo not given) , report its pKi on UniProt P46098.
4.20

Given CS(=O)(=O)N1CCN(CC(O)CN2CCC(CNC(=O)c3cccc4nc[nH]c34)CC2)CC1 (stereo not given) , report its pKi on UniProt P46098.
4.30

Given CC(C)c1nc2c(C(=O)NCC3CCN(CC(O)CN4CCN(S(C)(=O)=O)CC4)CC3)cccc2[nH]1 (stereo not given) , report its pKi on UniProt P46098.
4.10

Given COc1cc(N)c(Cl)cc1C(=O)NC1CCN(CCCOc2ccc(F)cc2)CC1OC (racemic) [CISAPRIDE] , report its pKi on UniProt P46098.
5.70

Given CS(=O)(=O)N1CCN(CC(O)CN2[C@@H]3CC[C@H]2C[C@@H](NC(=O)c2cccc4nc[nH]c24)C3)CC1 (stereo not given in full) , report its pKi on UniProt P46098.
4.70

###

Target: 5-hydroxytryptamine receptor 4 (Homo sapiens, UniProt Q13639)
Sequence (Q13639 whole entry): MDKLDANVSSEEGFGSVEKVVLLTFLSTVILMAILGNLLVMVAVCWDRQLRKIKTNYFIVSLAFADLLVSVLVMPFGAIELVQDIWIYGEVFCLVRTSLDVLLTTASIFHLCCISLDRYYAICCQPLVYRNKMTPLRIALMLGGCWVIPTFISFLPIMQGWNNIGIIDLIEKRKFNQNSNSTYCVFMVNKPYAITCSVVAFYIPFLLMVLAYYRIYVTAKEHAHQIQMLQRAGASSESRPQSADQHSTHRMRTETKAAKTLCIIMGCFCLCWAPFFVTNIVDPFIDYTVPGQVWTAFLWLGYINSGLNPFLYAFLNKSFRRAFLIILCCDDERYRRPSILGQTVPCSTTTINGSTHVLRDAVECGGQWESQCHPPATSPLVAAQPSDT
Test: Agonist activity at human recombinant 5HT4 receptor assessed as cAMP accumulation relative to 5-HT
Format: functional
assay_metric: Intrinsic activity (%)
Give the value in % but do not write % after it.

> print(dat)
                                   compound  numeric.result
1  CC(C)c1nc2c(C(=O)NCC3CCN(CC(O)CN4CCN(S(C)(=O)=O)CC4)CC3)cccc2[nH]1 (stereo not given)              61
2  CC(C)c1nc2c(C(=O)NCC3CCN(CCN4CCN(S(C)(=O)=O)CC4)CC3)cccc2[nH]1              64
3  CCc1nc2c(C(=O)NCC3CCN(CC(O)CN4CCN(S(C)(=O)=O)CC4)CC3)cccc2[nH]1 (stereo not given)              22
4  CC(=O)N1CCC(CN2CCC(CNC(=O)c3cccc4[nH]c(C(C)C)nc34)CC2)CC1              87
5  COc1cc(N)c(Cl)cc1C(=O)NC1CCN(CCCOc2ccc(F)cc2)CC1OC (racemic) [CISAPRIDE]              71
6  CS(=O)(=O)N1CCN(CC(O)CN2CCC(CNC(=O)c3cccc4[nH]cnc34)CC2)CC1 (stereo not given)               6

Using the record for `COC(=O)N1CCN(CCN2CCC(CNC(=O)c3cccc4[nH]c(C(C)C)nc34)CC2)CC1` , state its measured Intrinsic activity.
72

Using the record for CC(C)(C)c1nc2c(C(=O)NCC3CCN(CC(O)CN4CCN(S(C)(=O)=O)CC4)CC3)cccc2[nH]1 (stereo not given) , state its measured Intrinsic activity.
94

Using the record for CC(C)c1nc2c(C(=O)NCC3CCN(CC(O)CN(C)S(C)(=O)=O)CC3)cccc2[nH]1 (stereo not given) , state its measured Intrinsic activity.
83

Using the record for CS(=O)(=O)N1CCN(CC(O)CN2CCC(NC(=O)c3cccc4[nH]cnc34)CC2)CC1 (stereo not given) , state its measured Intrinsic activity.
7
